Measurement Description: Evaluation of total body clearance (CLtot), intravenous administration
Format: in vivo, Sprague-Dawley (SD)
Condition Details: rat (SD), intravenous administration 0.5-10 mg/kg; CLtot = dose/AUC
Short version: rat_CLt at least 2 mL/min/kg is condition met, less is condition not met.

INPUT: Textbook exercise: given the entry COc1ccc(S(=O)(=O)N(CC(C)C)CC(O)C(Cc2ccc(N(C)Cc3ccc(C)cc3-c3sc4c(c3C(=O)O)CC(C)(C)CC4)cc2)NC(=O)OC2COC3(C)OCCC23)cc1 (centres unmarked) , state whether its rat_CLt is greater than or equal to 2 mL/min/kg.
OUTPUT: condition not met

INPUT: Given COc1ccc(S(=O)(=O)N(CC(C)C)CC(O)C(Cc2ccc(NCc3cc(C(F)(F)F)ccc3-n3nc4c(c3C(=O)O)CC(C)(C)CC4)cc2)NC(=O)OC2COC3(C)OCCC23)cc1 (centres unmarked) , state whether its rat_CLt is at least 2 mL/min/kg.
OUTPUT: condition not met

INPUT: Decide: is the reported value of rat_CLt for CC(C)CN(CC(O)C(Cc1ccc(OCCNC(=O)c2cc(Cl)cc(Cl)c2O)cc1)NC(=O)OC1COC2(C)OCCC12)S(=O)(=O)c1ccc2c(c1)OCO2 (centres unmarked) equal to or greater than 2 mL/min/kg?
OUTPUT: condition met

INPUT: Identify whether the reported rat_CLt of the following compound is 2 mL/min/kg or greater: CC1(C)CCc2sc(NC(=O)c3ccccc3CNc3ccc(CC(NC(=O)OC4COC5(C)OCCC45)C(O)CN(CC4CCC4)S(=O)(=O)c4ccc5ncsc5c4)cc3)c(C(=O)O)c2C1 (centres unmarked)
OUTPUT: condition not met

INPUT: Say whether COc1ccc(S(=O)(=O)N(CC(C)C)CC(O)C(Cc2ccc(NCCCc3ccccc3-c3sc4c(c3C(=O)O)CC(C)(C)CC4)cc2)NC(=O)OC2COC3(C)OCCC23)cc1 (centres unmarked) shows rat_CLt of 2 mL/min/kg or more.
OUTPUT: condition not met

INPUT: Hi team, for CC(C)CN(CC(O)C(Cc1ccc(CCc2sc3c(c2C(=O)O)CC(C)(C)CC3)cc1)NC(=O)OC1COC2(C)OCCC12)S(=O)(=O)c1ccc2c(c1)OCO2 (centres unmarked) , is the recorded rat_CLt at or above 2 mL/min/kg?
OUTPUT: condition met

INPUT: // inclusive: rat_CLt at least 2 mL/min/kg? input: COc1ccc(S(=O)(=O)N(CC(C)C)CC(O)C(Cc2ccc(NCc3ccc4ccccc4c3-c3sc4c(c3C(=O)O)CC(C)(C)CC4)cc2)NC(=O)OC2COC3OCCC23)cc1 (centres unmarked)
OUTPUT: condition not met

INPUT: # bool: rat_CLt of `CC(C)CN(C[C@@H](O)[C@H](Cc1ccc(CCc2sc3c(c2C(=O)O)CC(C)(C)CC3)cc1)NC(=O)O[C@H]1CO[C@@]2(C)OCC[C@@H]12)S(=O)(=O)c1ccc2nc(N)sc2c1` >= 2 mL/min/kg
OUTPUT: condition met

INPUT: Does the compound COc1ccc(S(=O)(=O)N(CC(C)C)CC(O)C(Cc2ccc(N3CC(Oc4ccccc4C(=O)Nc4sc5c(c4C(=O)O)CC(C)(C)CC5)C3)cc2)NC(=O)OC2COC3(C)OCCC23)cc1 (centres unmarked) have recorded rat_CLt that is 2 mL/min/kg or more?
OUTPUT: condition not met

INPUT: Please check the record COc1ccc(S(=O)(=O)N(CC(C)C)CC(O)C(Cc2ccc(NCc3ccccc3-c3sc(N(C4CCCCC4)C4CCCCC4)nc3C(=O)O)cc2)NC(=O)OC2COC3(C)OCCC23)cc1 (centres unmarked) and state if its rat_CLt is at or above 2 mL/min/kg.
OUTPUT: condition met

INPUT: Record COc1ccc(S(=O)(=O)N(CC(C)C)CC(O)C(Cc2ccc(OCc3ccccc3-c3nc4n(c3C(=O)O)CCCC4)cc2)NC(=O)OC2COC3(C)OCCC23)cc1 (centres unmarked) ; criterion: rat_CLt no lower than 2 mL/min/kg. Met?
OUTPUT: condition met

INPUT: Please indicate if the recorded rat_CLt for COc1ccc(S(=O)(=O)N(CC(O)C(Cc2ccc(NCc3ccccc3-c3sc4c(c3C(=O)O)CC(C)(C)CC4)cc2)NC(=O)OC2COC3(C)OCCC23)CC(C)(C)C)cc1 (centres unmarked) meets or exceeds 2 mL/min/kg.
OUTPUT: condition not met

INPUT: Confirm if rat_CLt reported for the compound COc1ccc(S(=O)(=O)N(CC(C)C)CC(O)C(Cc2ccc(NCc3ccc(-c4sc5c(c4C(=O)O)CC(C)(C)CC5)cc3O)cc2)NC(=O)OC2COC3(C)OCCC23)cc1 (centres unmarked) is 2 mL/min/kg or above.
OUTPUT: condition met

INPUT: Answer whether rat_CLt of COc1ccc(S(=O)(=O)N(CC(C)C)CC(O)C(Cc2ccc(OCc3cc(N(C)C)ccc3-c3sc4c(c3C(=O)O)CC(C)(C)CC4)cc2)NC(=O)OC2COC3(C)OCCC23)cc1 (centres unmarked) is greater than or equal to 2 mL/min/kg.
OUTPUT: condition not met

INPUT: Reported rat_CLt at or above 2 mL/min/kg? COc1ccc(S(=O)(=O)N(CC(C)C)CC(O)C(Cc2ccc(NCc3cc(N(C)C)ccc3-c3sc4c(c3C(=O)O)CC(C)(C)CC4)cc2)NC(=O)OC2COC3(C)OCCC23)cc1 (centres unmarked)
OUTPUT: condition not met

INPUT: Is reported rat_CLt greater than or equal to 2 mL/min/kg here: COc1ccc(S(=O)(=O)N(CC(C)C)CC(O)C(Cc2ccc(N(C)CC3=C(c4sc5c(c4C(=O)O)CC(C)(C)CC5)CCCC3)cc2)NC(=O)OC2COC3(C)OCCC23)cc1 (centres unmarked)
OUTPUT: condition not met

INPUT: Evaluate COc1ccc(S(=O)(=O)N(CC(C)C)CC(O)C(Cc2ccc(CN3CCc4ccc(-c5sc6c(c5C(=O)O)CC(C)(C)CC6)cc4C3)cc2)NC(=O)OC2COC3(C)OCCC23)cc1 (centres unmarked) : rat_CLt at minimum 2 mL/min/kg?
OUTPUT: condition met

INPUT: Tell me whether rat_CLt is at least 2 mL/min/kg here: CC(C)CN(CC(O)C(Cc1ccc(NCc2ccccc2-c2sc3c(c2C(=O)O)CC(C)(C)CC3)cc1)NC(=O)OC1COC2(C)OCCC12)S(=O)(=O)c1ccc(OCF)cc1 (centres unmarked)
OUTPUT: condition not met

INPUT: Could you please find out whether COc1ccc(S(=O)(=O)N(CC(C)C)CC(O)C(Cc2ccc(OCc3ccccc3-c3ncc4c(c3C(=O)O)CCC(C)(C)C4)cc2)NC(=O)OC2COC3(C)OCCC23)cc1 (centres unmarked) has rat_CLt that meets 2 mL/min/kg or exceeds it?
OUTPUT: condition met

INPUT: Check the entry COc1ccc(S(=O)(=O)N(CC(C)C)CC(O)C(Cc2ccc(N(C)Cc3ccc(OC)cc3-c3sc4c(c3C(=O)O)CC(C)(C)CC4)cc2)NC(=O)OC2COC3(C)OCCC23)cc1 (centres unmarked) : does rat_CLt equal or exceed 2 mL/min/kg?
OUTPUT: condition not met

The measured values listed here are drawn from patent US20170253607A1.
